Numbers sourced from patent US12338261B2.

experiment: physchem; details: pH 2.2, aqueous buffer, kinetic from dmso stock, Solubility
valueType: solubility (µg/mL)
# output: bare number, implied unit µg/mL

Q) I am curious: what solubility value has been reported for "CN1CC[C@H](c2c(OP(=O)(O)O)cc(O)c3c(=O)cc(-c4ccccc4Cl)oc23)[C@H](O)C1" ?
A) 1900

====

Documented NOAEL across a set of compounds
assay: Maximum tolerated acute dose in rats; details: female, Sprague Dawley, rat, in vivo, po
# output: bare number, implied unit mg/kg

INSERT INTO assay_data (compound, reportedvalue) VALUES
  ('CN1CC[C@H](c2c(OP(=O)(O)O)cc(O)c3c(=O)cc(-c4ccccc4Cl)oc23)[C@H](O)C1 [Compound IB′]', 18);

Q) I am curious: what NOAEL value has been reported for CN1CC[C@H](c2c(O)cc(O)c3c(=O)cc(-c4ccccc4Cl)oc23)[C@H](O)C1 [Alvocidib] ?
A) 9

====

test: physchem; conditions: pH 8.7, aqueous buffer, kinetic from dmso stock
valueType: solubility kinetic

Q) I am curious: what solubility kinetic value has been reported for "CN1CC[C@H](c2c(OP(=O)(O)O)cc(O)c3c(=O)cc(-c4ccccc4Cl)oc23)[C@H](O)C1" ?
A) > 5000 µg/mL

====

Assay: Pharmacokinetics in Sprague Dawley rats
Type: in vivo, rat
Settings: male, Sprague Dawley, rat, plasma; SD rats, IV 1 mg/kg, 0.50 hr; read-out: Plasma concentration of compound IB′ itself
Experimental: Plasma samples were taken at 8 time-points (IV) or 7 time points (oral) over a 24 hour period following a single dose of compound IB′ (3 animals per group). […] The plasma samples were also analyzed for the presence of compound IB′.
valueType: concentration at 0.5 h (ng/mL)
# output: bare number, implied unit ng/mL

Q) I am curious: what concentration at 0.5 h value has been reported for CN1CC[C@H](c2c(OP(=O)(O)O)cc(O)c3c(=O)cc(-c4ccccc4Cl)oc23)[C@H](O)C1 [Compound IB′] ?
A) 24.6

====

experiment: physchem; details: pH 6.8, aqueous buffer, kinetic from dmso stock
valueType: solubility kinetic

Q) I am curious: what solubility kinetic value has been reported for "CN1CC[C@H](c2c(OP(=O)(O)O)cc(O)c3c(=O)cc(-c4ccccc4Cl)oc23)[C@H](O)C1" ?
A) > 5000 µg/mL

====

assay: Pharmacokinetics in Sprague Dawley rats; format: in vivo, rat; settings: male, Sprague Dawley, rat, plasma; SD rats, PO 10 mg/kg, 1.00 hr; read-out: Plasma concentration of compound IB′ itself
valueType: concentration at 1 h (ng/mL)
# output: bare number, implied unit ng/mL

Q) I am curious: what concentration at 1 h value has been reported for CN1CC[C@H](c2c(OP(=O)(O)O)cc(O)c3c(=O)cc(-c4ccccc4Cl)oc23)[C@H](O)C1 [Compound IB′] ?
A) 9.3

====

experiment: Pharmacokinetics in Sprague Dawley rats; type: in vivo, rat; settings: male, Sprague Dawley, rat, plasma; SD rats, PO 10 mg/kg, 0.50 hr; read-out: Plasma concentration of compound IB′ itself
valueType: concentration at 0.5 h (ng/mL)
# output: bare number, implied unit ng/mL

Q) I am curious: what concentration at 0.5 h value has been reported for "CN1CC[C@H](c2c(OP(=O)(O)O)cc(O)c3c(=O)cc(-c4ccccc4Cl)oc23)[C@H](O)C1" ?
A) 20.4

====

experiment: Pharmacokinetics in Sprague Dawley rats; format: in vivo, rat; details: male, Sprague Dawley, rat, plasma; SD rats, IV 1 mg/kg, 1.00 hr; read-out: Plasma concentration of compound IB′ itself
valueType: concentration at 1 h (ng/mL)
# output: bare number, implied unit ng/mL

Q) I am curious: what concentration at 1 h value has been reported for "CN1CC[C@H](c2c(OP(=O)(O)O)cc(O)c3c(=O)cc(-c4ccccc4Cl)oc23)[C@H](O)C1" ?
A) 9.3

====

assay: Pharmacokinetics in Sprague Dawley rats; type: in vivo, rat; conditions: male, Sprague Dawley, rat, plasma; SD rats, PO 10 mg/kg, 0.25 hr; read-out: Plasma concentration of compound IB′ itself
valueType: concentration at 0.25 h
The reply should read as a number followed by its unit.

Q) I am curious: what concentration at 0.25 h value has been reported for "CN1CC[C@H](c2c(OP(=O)(O)O)cc(O)c3c(=O)cc(-c4ccccc4Cl)oc23)[C@H](O)C1" ?
A) 30 ng/mL
